The reported measurements were obtained from PubChem BioAssay AID1159580.

normalized growth by entry:
- Assay Details: chemical genetic growth profiling, strain panel (AID 1159580);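 further: tested at 20 µM; growth read once vehicle control cultures reached saturation at 30 °C; 1 = growth at the plate median or of vehicle wells; lower values mean less growth of the strain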
- Condition Description: S. cerevisiae deletion strains, growth OD, locus YBR231C, strain swc5, hits give low values
The whole screen tested about 5,500 compounds, of which about 2,000 (36%) were called active. Another 18% or so got no clear call; they are omitted. The list shows a part of the results.

- Compound: "O=C1CCCC2C3CC(CN12)[C@@H]1CCCCN1C3 (some centres undefined)"
  normalized growth: 0.996
- Compound: "C1CCN2C[C@@H]3C[C@H](CN4CCCC[C@@H]34)[C@H]2C1"
  normalized growth: 1.03
- Compound: "CC(=O)O[C@@H]1CC2C(C)(C)C=CC(=O)[C@]2(C)C2CC[C@@]3(C)[C@H](c4ccoc4)OC(=O)C4OC43[C@@]21C (some centres undefined)"
  normalized growth: 1.01
- Compound: "C1CCN2CC3CC(CN4CCCCC34)C2C1 (centres undefined)"
  normalized growth: 1.01

====

- Assay Details: chemical genetic growth profiling, strain panel (AID 1159580)
- Condition Description: S. cerevisiae deletion strains, growth OD, locus YMR263W, strain SAP30
Hit rate of the full screen: of about 5,500 compounds, about 2,000 (36%) were called active. Not shown: some 18% with an inconclusive outcome. Rule as the data show it: active = normalized growth mostly below about 0.91 (no sharp cut-off); inconclusive = no clear call, values can overlap the other calls; inactive = mostly above about 0.92. Some of the results follow.
Possible outcomes: active, inactive

- Compound: "CCSc1nnc(N)s1"
  Class Name: "inactive"
- Compound: "CCCCC1=NC2(CCCC2)C(=O)N1Cc1ccc(-c2ccccc2-c2nn[nH]n2)cc1"
  Class Name: "inactive"
- Compound: "CC(=O)c1c(O)c(C)c(O)c2c1OC1=CC(=O)C(C(C)=O)C(=O)C12C (configuration not stated)"
  Class Name: "inactive"
- Compound: "COc1ccc(OC)c(S(=O)(=O)N2CCc3cc(OC)c(OC)cc3C2C)c1 (configuration not stated)"
  Class Name: "inactive"
- Compound: "O=C(NC(=S)NCc1ccncc1)c1ccccc1"
  Class Name: "inactive"
- Compound: "C=CC(C1=CC(=O)C=CC1=O)c1ccccc1 (configuration not stated)"
  Class Name: "inactive"
- Compound: "NCC(CC(=O)O)c1ccc(Cl)s1 (configuration not stated)"
  Class Name: "inactive"
- Compound: "CC(=O)Nc1cc([N+](=O)[O-])ccc1-n1cc(C)c(C(F)(F)F)n1"
  Class Name: "inactive"
- Compound: "C=CC(C1=CC(=O)C(OC)=CC1=O)c1ccc(OC)cc1 (configuration not stated)"
  Class Name: "inactive"
- Compound: "O=C(NC(=S)Nc1ccccn1)c1ccccc1"
  Class Name: "inactive"
- Compound: "Nc1ccc(S(=O)(=O)Nc2ccccn2)cc1"
  Class Name: "inactive"
- Compound: "O=[N+]([O-])c1ccc(O)c([N+](=O)[O-])c1"
  Class Name: "active"

====

- Assay Details: chemical genetic growth profiling, strain panel (AID 1159580);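 further: tested at 20 µM; growth read once vehicle control cultures reached saturation at 30 °C; 1 = growth at the plate median or of vehicle wells; lower values mean less growth of the strain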
- Condition Description: S. cerevisiae deletion strains, growth OD, locus YER015W, strain faa2, hits give low values
About 2,000 (36%) of roughly 5,500 compounds were called active. Roughly 18% stayed inconclusive and do not appear here. Some of the results follow.
Property Name: normalized growth

- Compound: "Cc1occc(=O)c1O"
  Observed Result: 0.964
- Compound: "COC(=O)C[C@H]1C(C)(C)C(=O)[C@@H]2CC3=C4CC(=O)O[C@@H](c5ccoc5)[C@]4(C)CCC3[C@@]1(C)C2=O (stereo partly drawn)"
  Observed Result: 1
- Compound: "O=[N+]([O-])c1ccc(O)c([N+](=O)[O-])c1"
  Observed Result: 0.795
- Compound: "CS(=O)(=O)CCCCN=C=S"
  Observed Result: 0.478
- Compound: "CC(=O)Nc1cc([As](=O)(O)O)ccc1O"
  Observed Result: 0.998
- Compound: "O=[N+]([O-])c1cc(O)c(O)c([N+](=O)[O-])c1"
  Observed Result: 1.01
- Compound: "CO[C@H]1/C=C/O[C@@]2(C)Oc3c(C)c(O)c4c(O)c(c5c(nc6cc(C)ccn65)c4c3C2=O)NC(=O)/C(C)=C\\C=C\\[C@H](C)[C@H](O)[C@@H](C)C(O)[C@@H](C)[C@H](OC(C)=O)[C@@H]1C (stereo partly drawn)"
  Observed Result: 1.04
- Compound: "CO[C@H]1/C=C/O[C@@]2(C)Oc3c(C)c(O)c4c(O)c(c(/C=N/N5CCN(C)CC5)c(O)c4c3C2=O)NC(=O)/C(C)=C\\C=C\\C(C)[C@H](O)[C@@H](C)[C@@H](O)[C@@H](C)[C@@H](OC(C)=O)[C@@H]1C (stereo partly drawn)"
  Observed Result: 1.03

====

- Assay Details: chemical genetic growth profiling, strain panel (AID 1159580);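 further: tested at 20 µM; growth read once vehicle control cultures reached saturation at 30 °C; 1 = growth at the plate median or of vehicle wells; lower values mean less growth of the strain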
- Condition Description: S. cerevisiae deletion strains, growth OD, locus YJL115W, strain asf1, hits give low values
In all, about 5,500 compounds went through this assay and about 2,000 (36%) were called active. Not shown: some 18% with an inconclusive outcome. The list shows a part of the results.
normalized growth by entry:

- Compound: "Nc1ccc(S(=O)(=O)Nc2ccc(Cl)nn2)cc1"
  normalized growth: 0.991
- Compound: "C[C@H]1[C@H]2CCC3C4CC=C5C[C@@H](N(C)C)CC[C@]5(C)C4CC[C@@]32CN1C (some centres not stated)"
  normalized growth: 1
- Compound: "CC(=O)Nc1cc([As](=O)(O)O)ccc1O"
  normalized growth: 1.01
- Compound: "O=C(O)CCCCC1CCSS1 (configuration not stated)"
  normalized growth: 0.978
- Compound: "Nc1ncn([C@@H]2O[C@H](CO)[C@@H](O)[C@H]2O)c(=O)n1"
  normalized growth: 0.97
- Compound: "O=[N+]([O-])c1cc([As](=O)(O)O)ccc1O"
  normalized growth: 0.962
- Compound: "Nc1ccc([As](=O)(O)O)cc1"
  normalized growth: 1.01
- Compound: "O[N+]1=CC=CCC1=S.On1ccccc1=S.[Zn]"
  normalized growth: 0.0768
- Compound: "O=c1[nH]c(=O)n(C2C[C@@H](O)[C@@H](CO)O2)cc1F (some centres not stated)"
  normalized growth: 0.982
- Compound: "O=[N+]([O-])c1cc(O)c(O)c([N+](=O)[O-])c1"
  normalized growth: 1.01
- Compound: "Nc1ncnc2c1ncn2C1O[C@H](COP(=O)(O)O)[C@@H](O)[C@H]1O (some centres not stated)"
  normalized growth: 0.998
- Compound: "Nc1ccc(C(=O)NCC(=O)O)cc1"
  normalized growth: 1.02

====

- Assay Details: chemical genetic growth profiling, strain panel (AID 1159580);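 further: tested at 20 µM; growth read once vehicle control cultures reached saturation at 30 °C; 1 = growth at the plate median or of vehicle wells; lower values mean less growth of the strain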
- Condition Description: S. cerevisiae deletion strains, growth OD, locus YKL048C, strain ELM1, hits give low values
In all, about 5,500 compounds went through this assay and about 2,000 (36%) were called active. Another 18% or so got no clear call; they are omitted. This is one part of the list.
normalized growth by entry:

- Compound: "CC(=O)c1sc(SCCS(=O)(=O)c2ccc(C)cc2)c2c1CC(C)(C)CC2=O"
  normalized growth: "0.859 (inactive)"
- Compound: "O=C(NCCSCc1cccc(C(F)(F)F)c1)Nc1cccc(C(F)(F)F)c1"
  normalized growth: "0.983 (inactive)"
- Compound: "O=[N+]([O-])c1cc(Br)cnc1Sc1nnc(SCC2CC2)s1"
  normalized growth: "0.778 (active)"
- Compound: "O=C(Nc1ccc(N2CCOCC2)cc1)c1ccc(-n2cccn2)cc1"
  normalized growth: "0.946 (inactive)"
- Compound: "O=C(c1ccccc1)c1cc(Cl)ccc1NC(=S)Nc1ccc(F)cc1"
  normalized growth: "0.99 (inactive)"
- Compound: "Cc1cccc(Cl)c1/C=N\\NC(N)=S"
  normalized growth: "0.88 (inactive)"
- Compound: "O=C1CSC(c2cccnc2)N1c1ccc(Cl)cc1Cl (stereo not drawn)"
  normalized growth: "1.01 (inactive)"
- Compound: "N#CC(C#N)=C/C=C(/Sc1nc2ccccc2s1)c1ccc(Br)cc1"
  normalized growth: "0.322 (active)"
- Compound: "O=[N+]([O-])c1ccccc1CS(=O)(=O)c1nc2ccccc2s1"
  normalized growth: "0.755 (active)"
- Compound: "N#CCC(=O)NNC(=S)Nc1ccc(Cl)c(Cl)c1"
  normalized growth: "0.97 (inactive)"
- Compound: "CCOC(=O)/C(=N/Nc1c(Cl)cccc1Cl)c1csc(N)n1"
  normalized growth: "0.986 (inactive)"
- Compound: "OC(CNCc1ccc(Cl)cc1)CO/N=C\\C1=C(Cl)c2cc(Cl)ccc2OC1 (stereo not drawn)"
  normalized growth: "0.931 (inactive)"
- Compound: "Cc1c(C)c(C)c(CSC(N)=Nc2ccc(F)cc2)c(C)c1C"
  normalized growth: "0.966 (inactive)"
- Compound: "O=[N+]([O-])/C=C/c1ccsc1"
  normalized growth: "0.109 (active)"
- Compound: "CC(=O)Nc1ccc([N+](=O)[O-])cc1[N+](=O)[O-]"
  normalized growth: "0.707 (active)"
- Compound: "C=CCOc1ccc(/C=C/[N+](=O)[O-])cc1"
  normalized growth: "0.107 (active)"
- Compound: "COc1ccc(C(=O)CSC2=NCCc3ccccc32)cc1"
  normalized growth: "1.03 (inactive)"
- Compound: "NC(=Nc1ccc(F)cc1)SCc1c(Cl)cccc1Cl"
  normalized growth: "0.967 (inactive)"
